Test system: M. bovis NCTC 10131
Experiment: microbe, parasite or virus in culture
Type: cell-based
Details: NCTC10131, 144 h, read-out: MIC's against M. bovis NCTC 10131
reported metric: MIC (µg/mL)

{"molecule": "CCOC(=O)C(C)=C(C)CC1OCC(CC2OC2C(C)C(C)O)C(O)C1O (stereo not shown)", "reported metric": "MIC", "relation": "=", "value": 0.05}
{"molecule": "CC(CC1OCC(CC2OC2C(C)C(C)O)C(O)C1O)=C(C)C(=O)OCc1cc(C)no1 (stereo not shown)", "reported metric": "MIC", "relation": "≤", "value": 0.01}
{"molecule": "CC(CC1OCC(CC2OC2C(C)C(C)O)C(O)C1O)=C(C)C(=O)O (stereo not shown)", "reported metric": "MIC", "relation": "=", "value": 0.025}
{"molecule": "CC(CC1OCC(CC2OC2C(C)C(C)O)C(O)C1O)=C(C)C(=O)OCc1cccc([N+](=O)[O-])c1 (stereo not shown)", "reported metric": "MIC", "relation": "=", "value": 0.025}
{"molecule": "CC(CC1OCC(CC2OC2C(C)C(C)O)C(O)C1O)=C(C)C(=O)OCCCCCCCCC(=O)O (stereo not shown)", "reported metric": "MIC", "relation": "=", "value": 0.05}
{"molecule": "COC(=O)C(C)=C(C)CC1OCC(CC2OC2C(C)C(C)O)C(O)C1O (stereo not shown)", "reported metric": "MIC", "relation": "=", "value": 0.25}
{"molecule": "CC(CC1OCC(CC2OC2C(C)C(C)O)C(O)C1O)=C(C)C(=O)OCc1ccc(Br)cc1 (stereo not shown) [Example 12, 4-Bromobenzyl 2-methylmonate A]", "reported metric": "MIC", "relation": "=", "value": 0.1}

====

Listing: MIC of selected compounds
System: M. suipneumoniae PW/C/210
Assay: MIC against Mycoplasma, in vitro agar dilution
Type: cell-based
Conditions: Mesomycoplasma hyopneumoniae, 144 h; Friis broth solidified with 0.9% agarose, 10^3 to 10^5 C.F.U., 6 days at 37°C; read-out: MIC's against M. suipneumoniae PW/C/210

{"compound": "CC(CC1OCC(CC2OC2C(C)C(C)O)C(O)C1O)=C(C)C(=O)OCc1ccc(Br)cc1 (stereo not shown) [Example 12, 4-Bromobenzyl 2-methylmonate A]", "MIC (µg/mL)": 5}
{"compound": "CC(CC1OCC(CC2OC2C(C)C(C)O)C(O)C1O)=C(C)C(=O)O (stereo not shown) [Example 4]", "MIC (µg/mL)": 0.1}
{"compound": "CC(CC1OCC(CC2OC2C(C)C(C)O)C(O)C1O)=C(C)C(=O)OCc1cc(C)no1 (stereo not shown) [Example 14]", "MIC (µg/mL)": 0.25}
{"compound": "CC(CC1OCC(CC2OC2C(C)C(C)O)C(O)C1O)=C(C)C(=O)OCc1cccc([N+](=O)[O-])c1 (stereo not shown) [Example 3]", "MIC (µg/mL)": 0.025}
{"compound": "CC(CC1OCC(CC2OC2C(C)C(C)O)C(O)C1O)=C(C)C(=O)OCCCCCCCCC(=O)O (stereo not shown) [Example 7]", "MIC (µg/mL)": 5}
{"compound": "CCOC(=O)C(C)=C(C)CC1OCC(CC2OC2C(C)C(C)O)C(O)C1O (stereo not shown) [Example 1]", "MIC (µg/mL)": 0.5}
{"compound": "COC(=O)C(C)=C(C)CC1OCC(CC2OC2C(C)C(C)O)C(O)C1O (stereo not shown) [Example 2]", "MIC (µg/mL)": 5}

====

Listed below: MIC values for each entry.
Tested on: Staph. aureus 152 (pen. sens)
reported metric: MIC (µg/mL)

{"compound": "CCOC(=O)C(C)=C(C)CC1OCC(CC2OC2C(C)C(C)O)C(O)C1O (stereo not shown) [Example 1]", "value": 0.625}
{"compound": "COC(=O)C(C)=C(C)CC1OCC(CC2OC2C(C)C(C)O)C(O)C1O (stereo not shown) [Example 2]", "value": 5}
{"compound": "CC(CC1OCC(CC2OC2C(C)C(C)O)C(O)C1O)=C(C)C(=O)OCc1cccc([N+](=O)[O-])c1 (stereo not shown) [Example 3]", "value": 1.25}
{"compound": "CC(CC1OCC(CC2OC2C(C)C(C)O)C(O)C1O)=C(C)C(=O)O (stereo not shown) [Example 4]", "value": 1.25}

====

Tested on: Erysipelothrix rhusiopathiae NCTC 8163
Recorded measurements of MIC, one per entry
reported metric: MIC

{"compound": "CCOC(=O)C(C)=C(C)CC1OCC(CC2OC2C(C)C(C)O)C(O)C1O (stereo not shown) [Example 1]", "reported metric": "MIC", "value": "80 µg/mL"}
{"compound": "CC(CC1OCC(CC2OC2C(C)C(C)O)C(O)C1O)=C(C)C(=O)OCc1cccc([N+](=O)[O-])c1 (stereo not shown) [Example 3]", "reported metric": "MIC", "value": "40 µg/mL"}
{"compound": "CC(CC1OCC(CC2OC2C(C)C(C)O)C(O)C1O)=C(C)C(=O)O (stereo not shown) [Example 4]", "reported metric": "MIC", "value": "80 µg/mL"}
{"compound": "COC(=O)C(C)=C(C)CC1OCC(CC2OC2C(C)C(C)O)C(O)C1O (stereo not shown) [Example 2]", "reported metric": "MIC", "value": "> 80 µg/mL"}

====

Quick note: these are MIC numbers for system: E. coli NCTC 10418

{"compound": "CC(CC1OCC(CC2OC2C(C)C(C)O)C(O)C1O)=C(C)C(=O)OCc1cccc([N+](=O)[O-])c1 (stereo not shown) [Example 3]", "MIC": "> 80 µg/mL"}
{"compound": "CC(CC1OCC(CC2OC2C(C)C(C)O)C(O)C1O)=C(C)C(=O)O (stereo not shown) [Example 4]", "MIC": "> 80 µg/mL"}
{"compound": "CCOC(=O)C(C)=C(C)CC1OCC(CC2OC2C(C)C(C)O)C(O)C1O (stereo not shown) [Example 1]", "MIC": "> 80 µg/mL"}
{"compound": "COC(=O)C(C)=C(C)CC1OCC(CC2OC2C(C)C(C)O)C(O)C1O (stereo not shown) [Example 2]", "MIC": "> 80 µg/mL"}

====

# key: entry, value: MIC
System: Bord. bronchiseptica B09

{"compound": "CC(CC1OCC(CC2OC2C(C)C(C)O)C(O)C1O)=C(C)C(=O)O (stereo not shown)", "MIC": "40 µg/mL"}
{"compound": "CC(CC1OCC(CC2OC2C(C)C(C)O)C(O)C1O)=C(C)C(=O)OCc1cccc([N+](=O)[O-])c1 (stereo not shown)", "MIC": "80 µg/mL"}
{"compound": "CCOC(=O)C(C)=C(C)CC1OCC(CC2OC2C(C)C(C)O)C(O)C1O (stereo not shown)", "MIC": "80 µg/mL"}
{"compound": "COC(=O)C(C)=C(C)CC1OCC(CC2OC2C(C)C(C)O)C(O)C1O (stereo not shown)", "MIC": "40 µg/mL"}

====

System: M. hyorhinis ATCC 25021
Experiment: MIC against Mycoplasma, in vitro agar dilution
Type: cell-based
Conditions: Mesomycoplasma hyorhinis, ATCC25021, 144 h; Friis broth solidified with 0.9% agarose, 10^3 to 10^5 C.F.U., 6 days at 37°C; read-out: MIC's against M. hyorhinis ATCC 25021
Checkbox rule: MIC lower than 0.5 µg/mL = 1; MIC not lower than 0.5 µg/mL = 0.

{"molecule": "CC(CC1OCC(CC2OC2C(C)C(C)O)C(O)C1O)=C(C)C(=O)OCc1cc(C)no1 (stereo not shown) [Example 14]", "tested on": "M. hyorhinis ATCC 25021", "class assignment": 1}
{"molecule": "CC(CC1OCC(CC2OC2C(C)C(C)O)C(O)C1O)=C(C)C(=O)OCCCCCCCCC(=O)O (stereo not shown) [Example 7]", "tested on": "M. hyorhinis ATCC 25021", "class assignment": 0}
{"molecule": "CC(CC1OCC(CC2OC2C(C)C(C)O)C(O)C1O)=C(C)C(=O)O (stereo not shown) [Example 4]", "tested on": "M. hyorhinis ATCC 25021", "class assignment": 1}
{"molecule": "CC(CC1OCC(CC2OC2C(C)C(C)O)C(O)C1O)=C(C)C(=O)OCc1cccc([N+](=O)[O-])c1 (stereo not shown) [Example 3]", "tested on": "M. hyorhinis ATCC 25021", "class assignment": 1}
{"molecule": "COC(=O)C(C)=C(C)CC1OCC(CC2OC2C(C)C(C)O)C(O)C1O (stereo not shown) [Example 2]", "tested on": "M. hyorhinis ATCC 25021", "class assignment": 0}
{"molecule": "CC(CC1OCC(CC2OC2C(C)C(C)O)C(O)C1O)=C(C)C(=O)OCc1ccc(Br)cc1 (stereo not shown) [Example 12, 4-Bromobenzyl 2-methylmonate A]", "tested on": "M. hyorhinis ATCC 25021", "class assignment": 0}
